# Test system: sDTE (Sinorhizobium sp. D-tagatose 3-epimerase)
# Assay Procedure: Michaelis-Menten non-linear regression
# Assay type: biochemical
# Stated Conditions: optimum pH 8.0 (Tris-HCl) and 50 °C; Mn2+
Catalogue of Km values
I only need the number, in mM, no unit after it.

Please review the entries below; each comes with its answer.
• OCC1(O)OC[C@@H](O)[C@H](O)[C@H]1O (stereo partly drawn) [D-Sorbose] = 83
• OCC1(O)OC[C@@H](O)[C@@H](O)[C@@H]1O (stereo partly drawn) [D-Fructose] = 54.7
• OCC1(O)OC[C@@H](O)[C@H](O)[C@@H]1O (stereo partly drawn) [D-Tagatose] = 26

Consider now this further compound.
// query What does the record list as Km for O=C(CO)[C@H](O)[C@H](O)[C@H](O)CO [D-Allulose] ?
// result 39.8
